# Tested on: Caki-1 cancer
# Assay Info: Growth inhibition assay
# Type: cell-based, human
# Condition Set: read-out: potency (EC50, concentration needed to induce half maximal efficacy); Caki-1 cancer; 48 h
Friendly reminder: EC50 below 7 µM is y, at or above is n.

Past entries and their recorded results:
CC1(C)CC(C)(C)c2cc(NC(=O)Nc3ccc([N+](=O)[O-])cc3)ccc2S1 ... y
COC(=O)c1ccc(NC(=S)Nc2ccc3c(c2)C(C)(C)CC(C)(C)S3)cc1 ... n
CCOC(=O)c1ccc(NC(=O)Nc2ccc3c(c2)C(C)(C)CC(C)(C)S3)cc1 ... y

Alright, here's another compound for you.
Asked: In the record for `COC(=O)c1cccc(NC(=S)Nc2ccc3c(c2)C(C)(C)CC(C)(C)S3)c1` , is EC50 less than 7 µM?
Given back: n

###

# Tested on: HK-2 normal
# Assay Info: Growth inhibition assay
# Type: cell-based, human
# Condition Set: HK-2 normal; 48 h; 1 to 12.5 µmol/L
Consider the following molecules and their measured efficacy (maximum growth inhibition observed) readings.

Completed entries (count: 3):
CC1=C(/C=C/C(C)=C/C=C/C(C)=C/C(=O)O)C(C)(C)CCC1 [t-RA, trans-retinoic acid, reference compound] ... 15.81% ± 0.47%
COC(=O)c1ccc(NC(=S)Nc2ccc3c(c2)C(C)(C)CC(C)(C)S3)cc1 ... 43.67% ± 0.44%
COC(=O)c1ccc(NC(=O)Nc2ccc3c(c2)C(C)(C)CC(C)(C)S3)cc1 ... 26.37% ± 0.22%

Proceed to the following item.
Asked: Bench note: what efficacy (maximum growth inhibition observed) did `CCOC(=O)c1ccc(NC(=O)Nc2ccc3c(c2)C(C)(C)CC(C)(C)S3)cc1` show?
Given back: 26.35% ± 0.80%

###

Consider the following compounds and their measured EC50 readings.
# Test system: HK-2 normal
# Assay Info: Growth inhibition assay
# Format: cell-based, human
# Condition Set: Homo sapiens, 48 h, read-out: potency (EC50, concentration needed to induce half maximal efficacy)
Your answer is read as µM, so omit the unit and give the number.

CC1(C)CC(C)(C)c2cc(NC(=S)Nc3ccc([N+](=O)[O-])cc3)ccc2S1 [SHetA2] ... 4.5

Proceed to the following item.
Asked: Bench note: what EC50 did CC1=C(/C=C/C(C)=C/C=C/C(C)=C/C(=O)O)C(C)(C)CCC1 [t-RA, trans-retinoic acid, reference compound] show?
Given back: 6.28

###

# System: HK-2 normal
# Assay Info: Growth inhibition assay
# Assay type: cell-based, human
# Condition Set: HK-2 normal; 48 h; 1 to 12.5 µmol/L
Consider the following compounds and their measured efficacy (maximum growth inhibition observed) readings.

Completed entries (count: 2):
COC(=O)c1cccc(NC(=S)Nc2ccc3c(c2)C(C)(C)CC(C)(C)S3)c1 ... 47.97% ± 1.00%
CC1(C)CC(C)(C)c2cc(NC(=S)Nc3ccc([N+](=O)[O-])cc3)ccc2S1 ... 51.02% ± 7.07%

Proceed to the following item.
Asked: Quick check: efficacy (maximum growth inhibition observed) on HK-2 normal, item `CC1(C)CC(C)(C)c2cc(NC(=O)Nc3ccc([N+](=O)[O-])cc3)ccc2S1` ?
Given back: 52.67% ± 1.84%

###

# Test system: RTC91696 normal
# Assay Info: Growth inhibition assay
# Format: cell-based, human
# Condition Set: Homo sapiens, 48 h, read-out: potency (EC50, concentration needed to induce half maximal efficacy)
Measurement Name: EC50 (µM)
Your answer is read as µM, so omit the unit and give the number.

Asked: Bench note: what EC50 did CC1(C)CC(C)(C)c2cc(NC(=S)Nc3ccc([N+](=O)[O-])cc3)ccc2S1 [SHetA2] show?
Given back: 4.57

###

# Test system: Caki-1 cancer
# Assay Info: Growth inhibition assay
# Type: cell-based, human
# Condition Set: Homo sapiens, CAKI-1, 48 h, read-out: potency (EC50, concentration needed to induce half maximal efficacy)
Measurement Name: pEC50
pEC50 field: float, defined as -log10 of concentration (mol/L).

CC1=C(/C=C/C(C)=C/C=C/C(C)=C/C(=O)O)C(C)(C)CCC1 [t-RA, trans-retinoic acid, reference compound] ... 5.33

Proceed to the following item.
Asked: Bench note: what pEC50 did CC1(C)CC(C)(C)c2cc(NC(=S)Nc3ccc([N+](=O)[O-])cc3)ccc2S1 [SHetA2] show?
Given back: 5.31
